The values you see were collected from PubChem BioAssay (NCI).

Test system: OVCAR-3 ovarian
Test: NCI tumour cell line growth inhibition, 48 h
measured.attribute: GI50

Return reported GI50 values for all items listed beneath this line.
1. COc1ccc(C2CC(=O)c3c(OC)cc(OC)cc3O2)cc1 (stereo not given)
2. O=C(C[C@@H](C(=O)NCc1cccc(C(F)(F)F)c1)N1C(=O)[C@@H](N2C(=O)OC[C@@H]2c2ccccc2)[C@H]1/C=C/c1ccccc1)NC1CCN(Cc2ccccc2)CC1

Outgoing:
1: > 100 µM; 2: 10.4 µM

Return reported GI50 values for all items listed beneath this line.
1. COc1cc2c3c(n(CCCCl)c(=O)c2cc1OC)-c1ccccc1C3=O
2. C[C@]12CC[C@@H]3c4ccc(O)cc4C[C@@H](CCCCCCCCCS(=O)CCCC(F)(F)C(F)(F)F)[C@H]3[C@@H]1CC[C@@H]2O (stereo not given in full)
3. Cn1cc(-c2csc(-c3cccc(F)c3)n2)c2cccnc21

Outgoing:
10.6 µM
> 100 µM
19 µM
